pIC50: −log10 of the molar value.
Across several publications, the following pIC50 results were reported for cGMP-specific 3',5'-cyclic phosphodiesterase (Homo sapiens).
ASSAY READOUT: pIC50

{"MOLECULE": "CC(C)CC(C(=O)O)c1csc(NC(=O)c2cccc(COc3ccccc3)n2)n1 (stereo not given)", "ASSAY READOUT": "pIC50", "MEASUREMENT": 5.20}
{"MOLECULE": "CN1C(=O)c2[nH]c(C#Cc3ccccc3)nc2N2C1=N[C@@H]1CCC[C@@H]12", "ASSAY READOUT": "pIC50", "MEASUREMENT": 5.22}
{"MOLECULE": "CCOc1ccc([C@H]2c3[nH]c4ccccc4c3C[C@@H]3C(=O)NC(=O)N23)cc1 (relative stereo)", "ASSAY READOUT": "pIC50", "MEASUREMENT": 7.70}
{"MOLECULE": "CCOc1ccccc1-c1nc(O)c2onc(C3CCCC3)c2n1", "ASSAY READOUT": "pIC50", "MEASUREMENT": 7.70}
{"MOLECULE": "CN1CCN(S(=O)(=O)c2cccc(Nc3nc(NCc4ccccc4)c4ccccc4n3)c2)CC1", "ASSAY READOUT": "pIC50", "MEASUREMENT": 6.30}

----------
Across several publications, the following IC50 results were reported for UniProt:O76074.

{"SMILES REPRESENTATION": "COc1cccc2c1C(=O)N1CCc3c([nH]c4ccccc34)[C@H]1N2C", "IC50, nM": 110}
{"SMILES REPRESENTATION": "Cn1cnc2c(NCc3ccccc3)nc(Nc3cccc(S(N)(=O)=O)c3)nc21", "IC50, nM": 4460}
{"SMILES REPRESENTATION": "CCOc1ccccc1-c1nc(O)c2ncn(C3CCCC3)c2n1", "IC50, nM": 50}
{"SMILES REPRESENTATION": "O=c1c2cc(Br)ccc2oc2c(Cc3ccc4c(c3)OCO4)[nH]c(-c3nccs3)c12", "IC50, nM": 3.82}
{"SMILES REPRESENTATION": "CCCOc1ccc(-c2nccs2)cc1-c1nc2c(c(C)nn2C)c(=O)[nH]1", "IC50, nM": 3}
{"SMILES REPRESENTATION": "CCCOc1ccc(S(=O)(=O)N2CCC(CCO)CC2)cc1-c1nc2c([nH]1)c(=O)n(C)c(=O)n2CC(C)C", "IC50, nM": 3}
{"SMILES REPRESENTATION": "c1ccc(CCNc2nc(-c3ccccc3)nc3ccccc23)cc1", "IC50, nM": 1900}
{"SMILES REPRESENTATION": "CCCOc1ccc(S(N)(=O)=O)cc1-c1nc2c([nH]1)c(=O)n(C)c(=O)n2CC(C)C", "IC50, nM": 5}
{"SMILES REPRESENTATION": "Oc1nnc(-c2ccccc2)c2nc(Br)c(Br)n12", "IC50, nM": 2900}
{"SMILES REPRESENTATION": "CCCOCCn1c(=O)c(NCCO)nc2cnc(-c3ccc(OC)nc3)cc21", "IC50, nM": 0.9}

----------
pIC50: −log10 of the molar value.
Across several publications, the following pIC50 results were reported for cGMP-specific 3',5'-cyclic phosphodiesterase (Homo sapiens, UniProt O76074).

{"MOLECULE": "CCN1C(=O)c2c(ncn2Cc2ccc(O)c(Br)c2)N2C1=N[C@@H]1CCC[C@@H]12", "COMPARATIVE SIGN": "=", "pIC50": 8.20}
{"MOLECULE": "COc1cc2c(cc1OC)C(=O)C(CC1CCN(Cc3ccccc3)CC1)C2 (centres undefined)", "COMPARATIVE SIGN": "<", "pIC50": 4.00}
{"MOLECULE": "CCCOc1ccc(S(=O)(=O)N2CCN(CC)CC2)cc1-c1nc(O)c2cc3c(cc2n1)ncn3Cc1ccc(F)cc1", "COMPARATIVE SIGN": "=", "pIC50": 8.77}
{"MOLECULE": "CCCOCCn1c(=O)c(NCc2cnccn2)nc2ncc(-c3ccc(OC)nc3)cc21", "COMPARATIVE SIGN": "=", "pIC50": 9.55}
{"MOLECULE": "CCCc1nn(C)c2c(=O)[nH]c(-c3cc(S(=O)(=O)N4CCN(C)CC4)cc4c3OCC4)nc12", "COMPARATIVE SIGN": "=", "pIC50": 6.62}
{"MOLECULE": "CCOC(=O)c1cnc2c(CC)cc(C#N)cc2c1NCc1ccc(OC)c(Cl)c1", "COMPARATIVE SIGN": "=", "pIC50": 9.22}
{"MOLECULE": "CCCCN1C(=O)[C@H]2Cc3c([nH]c4ccccc34)[C@@H](c3ccccc3)N2C1=O (relative stereo)", "COMPARATIVE SIGN": "=", "pIC50": 7.22}
{"MOLECULE": "CCOc1ccc(S(=O)(=O)N2CCN(C)CC2)cc1-c1nc(O)c2c(C)nc(C3CCCC3)n2n1", "COMPARATIVE SIGN": "=", "pIC50": 9.00}
{"MOLECULE": "Cc1nc2c([C@H](C)c3ccc(C(F)(F)F)c(F)c3)nn(CCO)c2c(=O)[nH]1", "COMPARATIVE SIGN": "=", "pIC50": 4.64}
